FYI, the data here is from PubChem BioAssay.

test: S6 kinase pathway phospho-S6 level changes – cell-based, A549, cytoblot, luminescence, serum-stimulated, primary screen (AID 1158); details: 5 h, higher = more signal;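 note: serum-stimulated A549 lung adenocarcinoma cells; signal is phosphorylated S6 detected by cytoblot immunostaining with HRP secondary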
endpoint_name: z-score
Numbers only.

// batch mode: one z-score value per listed entry
1. CC(=O)N1Cc2ccccc2C[C@@]2(N=C(c3ccc(OCCCO)cc3)O[C@H]2c2ccccc2)C1=O
2. O=C(NCC(O)CO)[C@]1(CCS(=O)(=O)c2ccccc2)N=C(c2ccc(OCCCO)cc2)O[C@@H]1c1ccccc1 (stereo partly specified)
3. Cc1ccc([C@H]2C(C(=O)O)=C[C@@H](C(C)C)N2S(=O)(=O)c2ccc(C)cc2)cc1
4. O=c1cccc(-c2ccccc2)o1

-- reply
[2.14, -0.516, -0.365, -0.548]

List the reported z-score of each molecule below.
1. COc1ccc([Si](C)(C)[C@@H]2[C@@H](CCO)O[C@]3(C(=O)N(Cc4cccc(N(C=O)c5ccccc5)c4)c4ccccc43)[C@H]2C)cc1
2. C=CC[C@@]1(C(=O)NCc2ccccc2)N=C(c2ccc(OCCCO)cc2)O[C@@H]1c1ccccc1CN=[N+]=[N-]

-- reply
0.62
-0.387
